Reference source: PubChem BioAssay (NCI)

system: HOP-62 NSCLC; assay: NCI-60 one-dose screen, 48 h; settings: 10 µM unless noted
This is part of a sample that, as a whole, favours compounds with a hit. Of some 83,000 tested, about 20% had one in any assay. Calls of active or inactive are those of the source. Rule for the calls: active = growth percent below 10; inactive = the rest.
Classes used: active, inactive

Compound: CC(=O)c1cccc(N(C)S(=O)(=O)c2ccc(C)cc2)c1
Label value: inactive
//
Compound: CC(=O)N(C)N=Nc1ccc(C)cc1
Label value: inactive
//
Compound: OCCOc1ccc(-c2cc(-c3ccccn3)nc(-c3ccccn3)c2)cc1
Label value: active
//
Compound: CCOC(OCC)C(=O)c1ccccc1
Label value: inactive
//
Compound: O=C(CCCl)OCCOc1ccccc1
Label value: inactive
//
Compound: COC1OC(C(O)C(O)CO)C(O)C(O)C1O (centres undefined)
Label value: inactive
//
Compound: CC(CCC#N)(CCC#N)C(=O)c1ccccc1
Label value: inactive
//
Compound: Nc1ccc(F)cc1F
Label value: inactive
//
Compound: S=c1nc2[nH]c3ccccc3c2n[nH]1
Label value: active
//
Compound: COc1ccc(NNS(=O)(=O)O)cc1
Label value: inactive
//
Compound: NNC(=O)c1ccccc1N
Label value: inactive
//
Compound: NC(=O)OCCO
Label value: inactive
//
Compound: Cc1ccccc1CC(N)C(=O)O (centres undefined)
Label value: inactive
//
Compound: Cc1[nH]nc(C(N)=O)c1[N+](=O)[O-]
Label value: inactive

====

Tested on: NCI-H522 lung
Test: NCI-60 one-dose screen, 48 h (100 = growth as untreated, 0 = no growth, -100 = all killed)
Details: 10 µM unless noted
Experimental: Growth inhibition of the NCI-H522 human Non-Small Cell Lung tumor cell line is measured as a screen for anti-cancer activity. Cells are grown in 96 well plates and exposed to the test compound for 48 hours. Compounds are tested at a single concentration, which is 10^-5 M for most compounds. The reported endpoint is percent growth (GI% or GIPRCNT), where numbers from 0 - 100% represent growth inhibition, and numbers from -100% - 0 represent cell death. […]
About 83,000 compounds went through this panel and 20% of them were active in at least one assay; those are over-represented in the sample as a whole.
Value type: growth (%)

Smiles notation: NC(=S)N/N=C/c1ccc(OC(=O)COc2ccc(Cl)cc2)cn1
Units label: %
Obs value: 43.3
//
Smiles notation: OCc1cccnc1
Units label: %
Obs value: 108
//
Smiles notation: CN(C)c1ncnc2c1cnn2C
Units label: %
Obs value: 106
//
Smiles notation: C(=C\c1ccncc1)/c1ccncc1
Units label: %
Obs value: 5.51

====

system: KM12 colon; assay: NCI-60 one-dose screen, 48 h; conditions: 10 µM unless noted
This is part of a sample that, as a whole, favours compounds with a hit. Of some 83,000 tested, about 20% had one in any assay. The source made the active and inactive calls. Rule for the calls: active = growth percent below 10; inactive = the rest.
Outcome codes: active, inactive

Compound: N=C(N)c1nn(C2OC(CO)C(O)C2O)c2nc[nH]c(=O)c12 (centres undefined)
Target entity: KM12 colon
Label value: active
--
Compound: COc1ccc2c(ccc[n+]2C)c1
Target entity: KM12 colon
Label value: inactive
--
Compound: O=S1(=O)c2ccccc2Oc2ccccc21
Target entity: KM12 colon
Label value: inactive
--
Compound: Cc1ccc(O)c(N)c1
Target entity: KM12 colon
Label value: inactive
--
Compound: Cc1ccc(S(=O)(=O)Oc2ccc3sc4c(CO)ccc(NCCN(C)C)c4c(=O)c3c2)cc1
Target entity: KM12 colon
Label value: active
--
Compound: COCC(N)=O
Target entity: KM12 colon
Label value: inactive
--
Compound: OCCc1ccc(Cl)cc1
Target entity: KM12 colon
Label value: inactive
--
Compound: Cc1ccc(C)c(CCO)c1
Target entity: KM12 colon
Label value: inactive
--
Compound: CC1(C)OC(=O)CC1=O
Target entity: KM12 colon
Label value: inactive
--
Compound: Cc1ccc(Cc2ccc(C)cc2)cc1
Target entity: KM12 colon
Label value: inactive
--
Compound: O=C(c1ccccc1O)N1CCCC1
Target entity: KM12 colon
Label value: inactive
--
Compound: C=CCC(O)C=C (centres undefined)
Target entity: KM12 colon
Label value: inactive
--
Compound: COc1cc(-c2ccc(NC(=O)CC(C)=O)c(OC)c2)ccc1NC(=O)CC(C)=O
Target entity: KM12 colon
Label value: inactive
--
Compound: Nc1ccc2c(c1)Cc1cc(N)c(N)cc1-2
Target entity: KM12 colon
Label value: inactive

====

system: HS 578T breast; assay: NCI-60 one-dose screen, 48 h (100 = growth as untreated, 0 = no growth, -100 = all killed); conditions: 10 µM unless noted
Compounds without any hit were thinned out: in the full panel of roughly 83,000, 20% have a hit.
Value type: growth (%)

Compound: CCOc1ccncc1[N+](=O)[O-]
Target entity: HS 578T breast
Obs value: 112
//
Compound: CC(C)N1CC(=O)N2CSCC2C1=O (stereo not given)
Target entity: HS 578T breast
Obs value: 98.7
//
Compound: CCOC(C=O)OCC
Target entity: HS 578T breast
Obs value: 109
//
Compound: COc1nc(Nc2cccc(C(F)(F)F)c2)nc(OC)n1
Target entity: HS 578T breast
Obs value: 98.6
//
Compound: O=Cc1c(O)c2ccccc2[nH]c1=O
Target entity: HS 578T breast
Obs value: 106
//
Compound: Cc1ccc(N)c(S(=O)(=O)O)c1
Target entity: HS 578T breast
Obs value: 113
//
Compound: O=C(OCC1CCCO1)c1ccc([N+](=O)[O-])cc1 (stereo not given)
Target entity: HS 578T breast
Obs value: 96.7
//
Compound: CCC(=O)Oc1c(C)cc(O)c2ccccc12
Target entity: HS 578T breast
Obs value: 91.2
//
Compound: N#C/C(=C\c1ccc(C#N)cc1)C(=O)c1ccccc1
Target entity: HS 578T breast
Obs value: 116
//
Compound: S=C=Nc1ccc2ccccc2c1
Target entity: HS 578T breast
Obs value: 104
//
Compound: CC(=O)c1ccc(C)cc1
Target entity: HS 578T breast
Obs value: 94.9
//
Compound: CC(=O)OCC1CCC(COC(C)=O)CC1 (stereo not given)
Target entity: HS 578T breast
Obs value: 106
//
Compound: CCOC(=O)c1ccc(Nc2sc(C(=O)c3ccc(Br)cc3)c(N)c2C#N)cc1
Target entity: HS 578T breast
Obs value: 20.8
//
Compound: NC(=S)c1c(N)n(C2OC(CO)C(O)C2O)c2ncnc(N)c12 (stereo not given)
Target entity: HS 578T breast
Obs value: -20.1
//
Compound: OC(CBr)CCBr (stereo not given)
Target entity: HS 578T breast
Obs value: 103
//
Compound: CCCCCC/C=C\CCCCCCCCCc1cc(O)cc(OC)c1O
Target entity: HS 578T breast
Obs value: 44.9
//
Compound: C(=C\c1ccncc1)/c1ccncc1
Target entity: HS 578T breast
Obs value: 114
//
Compound: CC(CCC#N)(CCC#N)C(=O)c1ccccc1
Target entity: HS 578T breast
Obs value: 97.8
//
Compound: CC(C)(N)CO[C@H]1C[C@H]2CC[C@@]1(C)C2(C)C
Target entity: HS 578T breast
Obs value: 81.9
//
Compound: CCOc1ccccc1NC(=O)CCl
Target entity: HS 578T breast
Obs value: 94.9
//
Compound: O=C(Nc1ccccc1)c1ccco1
Target entity: HS 578T breast
Obs value: 103
//
Compound: CC(=O)c1cc(O)ccc1O
Target entity: HS 578T breast
Obs value: 110
//
Compound: O=c1nc(Nc2cccc(Cl)c2)oc2cc(Cl)oc(=O)c12
Target entity: HS 578T breast
Obs value: 62.3
//
Compound: COC1OC(CO)C(OC)C(O)C1O (stereo not given)
Target entity: HS 578T breast
Obs value: 112
//
Compound: CC(O)C(F)(F)C(F)(F)C(F)(F)F (stereo not given)
Target entity: HS 578T breast
Obs value: 105

====

test system: MALME-3M melanoma; experiment: NCI-60 one-dose screen, 48 h; conditions: 10 µM unless noted
This is part of a sample that, as a whole, favours compounds with a hit. Of some 83,000 tested, about 20% had one in any assay. Activity calls are given as the source filed them. Rule for the calls: active = growth percent below 10; inactive = the rest.
Outcomes: YES for active, NO for inactive

Molecule: COc1cc(-c2ccc(NC(=O)CC(C)=O)c(OC)c2)ccc1NC(=O)CC(C)=O
Label value: NO
--
Molecule: CCC(C)C1CCC(O)CC1 (configuration not stated)
Label value: NO
--
Molecule: CCCNS(=O)(=O)c1ccc(Cl)cc1
Label value: NO
--
Molecule: CC(C)C(=O)OCCOc1ccc(C(C)(C)C)cc1
Label value: NO
--
Molecule: C=CC(=O)OC1CCC(C(C)(C)CC)CC1 (configuration not stated)
Label value: NO
--
Molecule: Cn1c(=O)c2[nH]c(CC(=O)O)nc2n(C)c1=O
Label value: NO
--
Molecule: c1ccc(-c2ccc3ccccc3c2)cc1
Label value: NO
--
Molecule: NCCCN1CCCC1=O
Label value: NO
--
Molecule: O=C(N/N=C\c1ccc(Cl)cc1Cl)c1ccncc1
Label value: NO
--
Molecule: COC(c1ccc2c(c1)OCO2)C(C)Br (configuration not stated)
Label value: NO
--
Molecule: C=CC(C)(C)n1cc(C2=C(O)C(=O)C(c3cn(C(C)(C)C=C)c4ccccc34)=C(O)C2=O)c2ccccc21
Label value: NO
--
Molecule: O=C(Nc1ccccc1)c1ccco1
Label value: NO
--
Molecule: NC(=S)N/N=C/c1ccc(Cl)cc1
Label value: NO
--
Molecule: O=Cc1ccc(O)c(O)c1
Label value: NO
--
Molecule: O=C(NCc1ccco1)Nc1cccc2c(NC(=O)NCc3ccco3)cccc12
Label value: NO
--
Molecule: COc1cccc2c1Cc1ccccc1-2
Label value: NO
--
Molecule: Cn1c(=O)[nH]c2ccccc2c1=O
Label value: NO
--
Molecule: c1ccc2[nH]c(Cc3nc4ccccc4[nH]3)nc2c1
Label value: NO
--
Molecule: S=C(Sc1ccc(Cl)cc1)Sc1ccc(Cl)cc1
Label value: YES
--
Molecule: Cc1cc(CO)c(O)c(CO)c1
Label value: NO
--
Molecule: Clc1ccc(C(SCc2ccccc2)SCc2ccccc2)cc1
Label value: NO
--
Molecule: CCCC(=O)CC(=O)c1ccccc1
Label value: NO
--
Molecule: C/C(O)=C(/C=N\C(=S)Nc1ccc(S(=O)(=O)Nc2nccs2)cc1)C(=O)Nc1ccccc1C
Label value: NO
--
Molecule: COc1cc(N)c2ncccc2c1Cl
Label value: NO
--
Molecule: CC(CC(CCC(=O)O)(c1ccccc1)c1ccccc1)N(C)C (configuration not stated)
Label value: NO
--
Molecule: O=C1Nc2ccccc2/C1=C\c1ccccc1O
Label value: NO
--
Molecule: Cc1cc(NC(=O)c2ccccc2)c(Cl)cc1N
Label value: NO
